src = patent US20240417405A1

system: KO-52 cells; assay: Proliferation assay, spheroid-like growth, KO-52 (MLL wildtype control cell line); format: cell-based, human; details: Homo sapiens, 192 h, KO-52 control cells, 8 days, confluence as measure of spheroid size; read-out: spheroid assay_OneTime KO-52 IC50
List of IC50 values.
Measured parameter: IC50 (nM)

{"Compound": "CC(C)[C@H]([C@H]1C[C@H](N2CCC(F)C(O)C2)C1)N1CC2(CCN(c3ncnnc3Oc3ccc(F)cc3-c3cncnc3C3CC3)C2)C1 (single isomer, unassigned)", "Endpoint value": 2410}
{"Compound": "CC(C)[C@@H]([C@H]1C[C@@H](N2CC[C@@H](C(=O)N(C)C)C2)C1)N1CC2(CCN(c3ncnnc3Oc3ccc(F)cc3-c3cnncc3C3CC3)C2)C1 (single isomer, unassigned)", "Endpoint value": 6840}
{"Compound": "CO[C@H]1CCN([C@H]2C[C@@H]([C@H](C(C)C)N3CC4(CCN(c5ncnnc5Oc5ccc(F)cc5-c5cnncc5C5CC5)C4)C3)C2)C1 (single isomer, unassigned)", "Endpoint value": 2650}

----------
Target: menin/MLL (terbium chelate-labeled menin, FITC-MBM1 peptide) (Homo sapiens, UniProt O00255, T541A)
Construct: Menin (a.a 1-610-6xhis tag)
Sequence (O00255 with tags, fused parts or gaps T541A): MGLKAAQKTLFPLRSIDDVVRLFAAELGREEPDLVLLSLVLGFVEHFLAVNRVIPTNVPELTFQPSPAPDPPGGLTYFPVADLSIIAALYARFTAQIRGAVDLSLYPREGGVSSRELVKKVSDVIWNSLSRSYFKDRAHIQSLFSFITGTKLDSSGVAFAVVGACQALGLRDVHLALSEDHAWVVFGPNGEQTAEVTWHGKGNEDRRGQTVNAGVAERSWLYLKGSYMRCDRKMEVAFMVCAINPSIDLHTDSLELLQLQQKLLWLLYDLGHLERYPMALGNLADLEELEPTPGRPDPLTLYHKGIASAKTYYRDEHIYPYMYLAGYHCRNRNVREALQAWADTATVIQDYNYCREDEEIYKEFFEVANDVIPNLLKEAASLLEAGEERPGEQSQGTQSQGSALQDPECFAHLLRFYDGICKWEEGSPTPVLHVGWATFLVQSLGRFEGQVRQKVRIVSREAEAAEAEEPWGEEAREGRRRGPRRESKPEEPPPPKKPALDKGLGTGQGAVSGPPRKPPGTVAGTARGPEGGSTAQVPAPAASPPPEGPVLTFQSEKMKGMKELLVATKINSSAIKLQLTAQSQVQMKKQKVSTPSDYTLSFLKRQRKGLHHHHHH
Assay: Menin/MLL homogenous time-resolved fluorescence (HTRF) assay
Conditions: 30 min incubation
pIC50: −log10 of the molar value.
Measured parameter: pIC50

{"Compound": "CC(C)[C@H]([C@H]1C[C@@H](N2CC3(CCC(=O)N3C)C2)C1)N1CC2(CCN(c3ncnnc3Oc3ccc(F)cc3-c3cncnc3C3CC3)C2)C1 (single isomer, unassigned) [Compound 316]", "Measured parameter": "pIC50", "Endpoint value": 8.31}
{"Compound": "CC(C)[C@H]([C@H]1C[C@H](N2CCC(F)C(O)C2)C1)N1CC2(CCN(c3ncnnc3Oc3ccc(F)cc3-c3cncnc3C3CC3)C2)C1 (single isomer, unassigned) [Compound 31]", "Measured parameter": "pIC50", "Endpoint value": 9.52}
{"Compound": "CO[C@@H]1CCN([C@H]2C[C@@H]([C@@H](C(C)C)N3CC4(CCN(c5ncnnc5Oc5ccc(F)cc5-c5cncnc5C5CC5)C4)C3)C2)C1 (single isomer, unassigned) [Compound 211]", "Measured parameter": "pIC50", "Endpoint value": 10.00}
{"Compound": "CC(C)[C@H]([C@H]1C[C@@H](N2CCC3(COC3)C2)C1)N1CC2(CCN(c3ncnnc3Oc3ccc(F)cc3-c3cncnc3C3CC3)C2)C1 (single isomer, unassigned) [Compound 325]", "Measured parameter": "pIC50", "Endpoint value": 10.00}
{"Compound": "CC(=O)N1CC2CN([C@H]3C[C@@H]([C@H](C(C)C)N4CC5(CCN(c6ncnnc6Oc6ccc(F)cc6-c6cnc(C)nc6C6CC6)C5)C4)C3)CC2C1 (some centres unmarked) [Compound 378]", "Measured parameter": "pIC50", "Endpoint value": 9.97}

----------
system: MOLM14 cells; assay: Proliferation assay, spheroid-like growth, MOLM14 (MLL-AF9 rearranged); assay type: cell-based, human; details: Homo sapiens, MOLM-14, 192 h, 8 days, confluence as measure of spheroid size, read-out: spheroid assay_OneTime MOLM14 IC50

{"Compound": "CC(=O)N1CCN([C@H]2C[C@@H]([C@H](C(C)C)N3CC4(CCN(c5ncnnc5Oc5ccc(F)cc5-c5ncc(C#N)cc5C5CC5)C4)C3)C2)CC1 (single isomer, unassigned) [Compound 96]", "IC50": "> 940 nM"}
{"Compound": "CC(C)[C@@H]([C@H]1C[C@H](N2CCC3(CCO3)CC2)C1)N1CC2(CCN(c3ncnnc3Oc3ccc(F)cc3-c3cnncc3C3CC3)C2)C1 (single isomer, unassigned) [Compound 281b]", "IC50": "83 nM"}
{"Compound": "CC(C)C([C@H]1C[C@@H](Nc2cccc(CN(C)C)n2)C1)N1CC2(CCN(c3ncnnc3Oc3ccc(F)cc3-c3cncnc3C3CC3)C2)C1 (single isomer, unassigned) [Compound 425]", "IC50": "6 nM"}
{"Compound": "CC1CN([C@H]2C[C@@H]([C@H](C(C)C)N3CC4(CCN(c5ncnnc5Oc5ccc(F)cc5-c5cncnc5C5CC5)C4)C3)C2)CCC1O (single isomer, unassigned) [Compound 87]", "IC50": "820 nM"}
{"Compound": "CC(=O)N[C@H]1C[C@@H](C(C(C)C)N2CC3(CCN(c4ncnnc4Oc4ccc(F)cc4-c4nnccc4C4CC4)C3)C2)C1 (some centres unmarked) [Compound 183]", "IC50": "160 nM"}

----------
molecular target: menin/MLL (terbium chelate-labeled menin, FITC-MBM1 peptide) (Homo sapiens, UniProt O00255, T541A); construct: Menin (a.a 1-610-6xhis tag); assay: Menin/MLL homogenous time-resolved fluorescence (HTRF) assay; details: 30 min incubation
# Lookup of reported IC50 keyed by entry
Measured parameter: IC50 (nM)

{"Compound": "CC(=O)Nc1nccc(N[C@H]2C[C@@H]([C@@H](C(C)C)N3CC4(CCN(c5ncnnc5Oc5ccc(F)cc5-c5cncnc5C5CC5)C4)C3)C2)c1F (single isomer, unassigned)", "Measured parameter": "IC50", "Endpoint value": 0.17}
{"Compound": "CC(C)[C@H]([C@H]1C[C@@H](NC(=O)C2(F)CC2)C1)N1CC2(CCN(c3ncnnc3Oc3ccc(F)cc3-c3n[nH]c(=O)cc3C3CC3)C2)C1 (single isomer, unassigned)", "Measured parameter": "IC50", "Endpoint value": 0.3}
{"Compound": "CO[C@H]1CCN([C@H]2C[C@@H](C(C(C)C)N3CC4(CCN(c5ncnnc5Oc5ccc(F)cc5-c5nnccc5C5CC5)C4)C3)C2)C1 (single isomer, unassigned)", "Measured parameter": "IC50", "Endpoint value": 0.2}

----------
target: menin/MLL (terbium chelate-labeled menin, FITC-MBM1 peptide) (Homo sapiens, UniProt O00255, T541A); construct: Menin (a.a 1-610-6xhis tag); experiment: Menin/MLL homogenous time-resolved fluorescence (HTRF) assay; conditions: 30 min incubation
pIC50: −log10 of the molar value.
# pIC50 per record follows
Measured parameter: pIC50

{"Molecule": "CC(C)C([C@H]1C[C@@H](N2CCC3(CCO3)CC2)C1)N1CC2(CCN(c3ncnnc3Oc3ccc(F)cc3-c3cncnc3C3CC3)C2)C1 (some centres unmarked)", "Endpoint value": 9.70}
{"Molecule": "CC(C)[C@@H](C1CN(CC2COC2)C1)N1CC2(CCN(c3ncnnc3Oc3ccc(F)cc3-c3cncnc3C3CC3)C2)C1 (single isomer, unassigned)", "Endpoint value": 9.30}
{"Molecule": "CC(C)[C@@H]([C@H]1C[C@H](N2CCC3(CCO3)CC2)C1)N1CC2(CCN(c3ncnnc3Oc3ccc(F)cc3-c3cnncc3C3CC3)C2)C1 (single isomer, unassigned) [Compound 281b]", "Endpoint value": 9.51}
{"Molecule": "CC(C)[C@H]([C@H]1C[C@@H](N2CCC3(CNC(=O)O3)C2)C1)N1CC2(CCN(c3ncnnc3Oc3ccc(F)cc3-c3nnccc3C3CC3)C2)C1 (single isomer, unassigned)", "Endpoint value": 10.00}
{"Molecule": "CC(C)[C@@H]([C@H]1C[C@H](N(C)C)C1)N1CC2(CCN(c3ncnnc3Oc3ccc(F)cc3-c3nnccc3C3CC3)C2)C1 (single isomer, unassigned) [Compound 261b]", "Endpoint value": 9.52}
{"Molecule": "CC(C)C([C@H]1C[C@@H](Nc2ccn(C)n2)C1)N1CC2(CCN(c3ncnnc3Oc3ccc(F)cc3-c3cncnc3C3CC3)C2)C1 (some centres unmarked)", "Endpoint value": 9.05}
{"Molecule": "CC(C)[C@H]([C@H]1C[C@@H](N2C[C@H]3COC[C@H]3C2)C1)N1CC2(CCN(c3ncnnc3Oc3ccc(F)cc3-c3cnc(C#N)nc3C3CC3)C2)C1", "Endpoint value": 10.00}
{"Molecule": "CC(C)C(C1CCN(CC2COC2)CC1)N1CC2(CCN(c3ncnnc3Oc3ccc(F)cc3-c3nccnc3C3CC3)C2)C1 (centres unmarked)", "Endpoint value": 9.15}
{"Molecule": "CC(C)C(C1CC2(CCN2CC2COC2)C1)N1CC2(CCN(c3ncnnc3Oc3ccc(F)cc3-c3cncnc3C3CC3)C2)C1 (centres unmarked)", "Endpoint value": 9.10}
{"Molecule": "CC(C)[C@H]([C@H]1C[C@@H](N2CC3(COC(=O)N3)C2)C1)N1CC2(CCN(c3ncnnc3Oc3ccc(F)cc3-c3cncnc3C3CC3)C2)C1 (single isomer, unassigned)", "Endpoint value": 10.00}
{"Molecule": "CC(C)[C@H]([C@H]1C[C@@H](N2CCC(O)C(F)C2)C1)N1CC2(CCN(c3ncnnc3Oc3ccc(F)cc3-c3cncnc3C3CC3)C2)C1 (single isomer, unassigned)", "Endpoint value": 9.40}
